The reported numbers originate from the supplement of paper PMC10724198.

Test system: Saccharomyces cerevisiae
Experiment: protein stability index of tFT-peptide fusion (C-terminal peptide) (PSI (0-1 scale)); higher = more stable (slower turnover)
Conditions: genetic background: wild type; temperature: 30 C
Please mark yes if the recorded protein stability index is equal to or greater than 0.7, and no if it falls below.

Does LKDQFKNKNKSS have a reported protein stability index of at least 0.7? no

Does KGEGGEGSMGGA have a reported protein stability index of at least 0.7? yes

Does VQLSISCEPPSN have a reported protein stability index of at least 0.7? yes

Does VVGSWGRGGCGG have a reported protein stability index of at least 0.7? no

Does TLVLQFGRKRFG have a reported protein stability index of at least 0.7? no

Does SVAVTGSTLVLI have a reported protein stability index of at least 0.7? no

Does PLLVLPGPLLTP have a reported protein stability index of at least 0.7? no

----------
System: Saccharomyces cerevisiae
Test: protein stability index of tFT-peptide fusion in wild type (PSI (0-1 scale)); higher = more stable (slower turnover)
Conditions: genetic background: wild type
Categories are defined by ranges of protein stability index, namely bucket A: < 0.2; bucket B: ≥ 0.2 and < 0.3; bucket C: ≥ 0.3

Which class holds FWMRWTFRYWVN ? bucket A

Which class holds ARTLPMCPLLLR ? bucket C

Which class holds CLVSLPILLFFG ? bucket C

Which class holds RSNRVLLPLYFR ? bucket C

Which class holds AITLPMSPLLLR ? bucket B

Which class holds GLYMCSVGCWFM ? bucket C

Which class holds YSLRVLLPLYFR ? bucket B

Which class holds LKILRQKMKHQN ? bucket C

Which class holds CTWCGYKFRTNN ? bucket B

Which class holds KKHKKGQKQKQN ? bucket B

Which class holds KKHKKGQKQKIH ? bucket A

Which class holds PSQAASFWRVVG ? bucket A

Which class holds PDKRNHLIKLLE ? bucket C

Which class holds CTSWGYKFRTNN ? bucket A

Which class holds PDKRNCLIKLLN ? bucket A

Which class holds RVTRLDAIYKRI ? bucket C

Which class holds AITLPMCPLLLG ? bucket C

Which class holds KKHKKGQKQKINN ? bucket B

Which class holds LKFLRQKMNHQN ? bucket A

Which class holds GLYMRSVGCWFR ? bucket B

Which class holds ARWRVGLWQGAS ? bucket C

Which class holds FSMRWTFRKWVN ? bucket C

Which class holds VRGAVGGWRLVD ? bucket C

Which class holds RLIQPLPVNFLN ? bucket A

Which class holds YSMRWTFRYWVN ? bucket A

Which class holds FSMRQTFRYWVN ? bucket A

Which class holds RSLRVLLPLYGR ? bucket C

Which class holds VRGAVGGWRRVG ? bucket A

Which class holds PDKRNHLIKLLNH ? bucket A

Which class holds LKIHRQKMNHQN ? bucket B

Which class holds RSLRVLLWLYFR ? bucket A

Which class holds PDKRQHLIKLLN ? bucket A

Which class holds KSLAASFWRVVG ? bucket A

Which class holds GQYMCSVGCWFR ? bucket C

Which class holds LKILRQKMNHQNK ? bucket C

Which class holds RSLRVLLELYFR ? bucket C

Which class holds FSMRWTARYWVN ? bucket A

Which class holds ARWRVGLWKGAS ? bucket C

----------
Tested on: Saccharomyces cerevisiae
Experiment: protein stability index of tFT-peptide fusion (C-terminal peptide) (PSI (0-1 scale)); higher = more stable (slower turnover)
Conditions: genetic background: wild type; temperature: 30 C
Would you kindly list protein stability index for each of these sequences?
Give the value as a plain number.

// QSPPILVPSSDV : protein stability index value = 0.686

// FTACSVCVETMN : protein stability index value = 0.678

// PPGPVVPPPPPD : protein stability index value = 0.664

// DSMGKVLLTCAN : protein stability index value = 0.581

// IEVACLLTAFCD : protein stability index value = 0.251

// HPVSVKPSESSR : protein stability index value = 0.668

// RINKIKRKKRIK : protein stability index value = 0.618

// DALGRSTKGGHW : protein stability index value = 0.689

// TECGVRRGLVGR : protein stability index value = 0.651

// PPPLSLLPPCSP : protein stability index value = 0.678

// SSNSSFFIWGLV : protein stability index value = 0.712

// AFPSPPATPSSQ : protein stability index value = 0.645

// STRTNPSYFTYQ : protein stability index value = 0.675

// RILLIRRKEKYL : protein stability index value = 0.558

// RETPPALRSFPV : protein stability index value = 0.613

// TPPPRSFHRFPC : protein stability index value = 0.694

// PPPSPRSAPAAS : protein stability index value = 0.711

// CRRCRIHSGIYD : protein stability index value = 0.672

// LKTGTAAGVKDH : protein stability index value = 0.684

----------
Would you kindly list protein stability index for each of these sequences?
Test system: Saccharomyces cerevisiae
Experiment: protein stability index of tFT-peptide fusion (C-terminal peptide) (PSI (0-1 scale)); higher = more stable (slower turnover)
Conditions: genetic background: das1 deletion; temperature: 30 C
Give the value as a plain number.

// VKVKMKIIIIIK : protein stability index value = 0.28

// ILRAGITYVYAV : protein stability index value = 0.325

// SPCLPRGVLFLA : protein stability index value = 0.667

// CHFLLHYVFLLS : protein stability index value = 0.306

// CGFVFFVLVVFW : protein stability index value = 0.12

// VRHPVVVVRRVI : protein stability index value = 0.649

// LFLIYCFAFSIG : protein stability index value = 0.22

// RIRLYWVLRRLG : protein stability index value = 0.571

// RRGGNIVWYCLV : protein stability index value = 0.634

// VSIRVVVWVSWG : protein stability index value = 0.145

// RSNLSKSWHRIG : protein stability index value = 0.645

// PSSVKLRVPSLY : protein stability index value = 0.623

// GIVSGEGAVGVG : protein stability index value = 0.468

// QCRLPRPPLSLP : protein stability index value = 0.651

// VVGILVLASWDL : protein stability index value = 0.264

// FVFAMSECIVLS : protein stability index value = 0.205

// SDVLVVWVFFCR : protein stability index value = 0.26

// LRVVVGLCMCVL : protein stability index value = 0.396

// IEVACLLTAFCD : protein stability index value = 0.257

// GELPGELYKFWL : protein stability index value = 0.664

// IFCRCNSTVLLI : protein stability index value = 0.483

// WLYPVFKISYCV : protein stability index value = 0.357

// YLFLPGGEVSVH : protein stability index value = 0.538

// RYLHFASLLFAS : protein stability index value = 0.585

----------
System: Saccharomyces cerevisiae
Experiment: protein stability index of tFT-peptide fusion (C-terminal peptide) (PSI (0-1 scale)); higher = more stable (slower turnover)
Settings: genetic background: das1 deletion; temperature: 30 C
Please mark YES if the recorded protein stability index is equal to or greater than 0.7, and NO if it falls below.

Does ATSTAAAADKKT [HAP2 C-terminal 12 aa] have a reported protein stability index of at least 0.7? NO

Does EFKCMSVITAQQ [SEH1 C-terminal 12 aa] have a reported protein stability index of at least 0.7? NO

Does VLMLETIAYLFS [NFG1 C-terminal 12 aa] have a reported protein stability index of at least 0.7? NO

Does SKMLKNKIPLKN [YGL138C C-terminal 12 aa] have a reported protein stability index of at least 0.7? NO

Does KHCPYVFIPYVF [ERG4 C-terminal 12 aa] have a reported protein stability index of at least 0.7? NO

Does TRMNVSHYYIIT [YOL166C C-terminal 12 aa] have a reported protein stability index of at least 0.7? NO

Does FMSNTLFNSSLV [YPR003C C-terminal 12 aa] have a reported protein stability index of at least 0.7? NO

Does FVYKGVRKPKRN [SEN15 C-terminal 12 aa] have a reported protein stability index of at least 0.7? YES

Does LSRYTRVLLMFM [YBR178W C-terminal 12 aa] have a reported protein stability index of at least 0.7? NO

Does KPGGSKKRKTKA [RFC1 C-terminal 12 aa] have a reported protein stability index of at least 0.7? YES

Does DEDDDEDVTDQE [DLS1 C-terminal 12 aa] have a reported protein stability index of at least 0.7? NO

Does TVNYLHRLLETD [ISN1 C-terminal 12 aa] have a reported protein stability index of at least 0.7? YES

Does NLLRFIVGVDVL [YDR426C C-terminal 12 aa] have a reported protein stability index of at least 0.7? NO

Does LAITIAALCASL [EXG2 C-terminal 12 aa] have a reported protein stability index of at least 0.7? NO

Does APRLRLEDIFQQ [RET1 C-terminal 12 aa] have a reported protein stability index of at least 0.7? YES
